Target Or Test System: PDE V (Oryctolagus cuniculus, UniProt G1SX67)
Method Description: Measurement of Inhibition of PDE V (cyclic nucleotide phosphodiesterase assay)
Format: biochemical, rabbit
Reported Conditions: at 10 μM; read-out: Activity Inhibition % at (conc. μM)
Readout: inhibition at 10 µM (%)
Express your answer in %, writing the number without its unit.

// solved cases for inhibition at 10 µM follow
{"Entry Smiles": "CCCc1nn(C)c2c(=O)[nH]c(-c3sc(S(=O)(=O)N4CCN(CC)CC4)cc3O)nc12", "Readout": "inhibition at 10 µM", "Measured": 26}
{"Entry Smiles": "CCCc1nn(C)c2c(=O)[nH]c(-c3cc(S(=O)(=O)N4CCN(C)CC4)cn3C)nc12", "Readout": "inhibition at 10 µM", "Measured": 31}
{"Entry Smiles": "CCCc1nn(C)c2c(=O)[nH]c(-c3sc(S(=O)(=O)N4CCN(C5CCCCC5)CC4)cc3O)nc12", "Readout": "inhibition at 10 µM", "Measured": 31}
{"Entry Smiles": "CCCc1nn(C)c2c(=O)[nH]c(-c3cc(S(=O)(=O)N4CCN(c5ncccn5)CC4)cn3C)nc12", "Readout": "inhibition at 10 µM", "Measured": 31}
{"Entry Smiles": "CCCc1nn(C)c2c(=O)[nH]c(-c3sc(S(=O)(=O)N(C)C)cc3O)nc12", "Readout": "inhibition at 10 µM", "Measured": 30}

Q: Which inhibition at 10 µM is reported for this compound? CCCc1nn(C)c2c(=O)[nH]c(-c3sc(S(=O)(=O)N4CCN(C(N)=O)CC4)cc3O)nc12
A: 30

Q: Reported inhibition at 10 µM for CCCc1nn(C)c2c(=O)[nH]c(-c3sc(S(=O)(=O)N4CCN(c5ccccc5)CC4)cc3OCC)nc12 : what is it?
A: 19

Q: What does the data say about its inhibition at 10 µM? Entry: CCCc1nn(C)c2c(=O)[nH]c(-c3sc(S(=O)(=O)N4CCN(C5CCCCC5)CC4)cc3OCC)nc12
A: 33

Q: Can you share its inhibition at 10 µM? I mean this compound: CCCc1nn(C)c2c(=O)[nH]c(-c3sc(S(=O)(=O)N(C)CCN(C)C)cc3O)nc12
A: 32

Q: Sample CCCc1nn(C)c2c(=O)[nH]c(-c3sc(S(=O)(=O)N4CCN(c5ccccc5)CC4)cc3O)nc12 — what was its inhibition at 10 µM?
A: 28

Q: Look at this compound and give its reported inhibition at 10 µM. CCCc1nn(C)c2c(=O)[nH]c(-c3sc(S(=O)(=O)N4CCN(C/C=C/c5ccccc5)CC4)cc3O)nc12
A: 27

Q: Could you tell me which inhibition at 10 µM is on file for CCCc1nn(C)c2c(=O)[nH]c(-c3sc(S(=O)(=O)N4CCN(C/C=C/c5ccccc5)CC4)cc3OCC)nc12 ?
A: 44
